# System: DMS 273 small cell lung
# experiment.notes: NCI tumour cell line growth inhibition, 48 h
assay.endpoint: TGI

• CC(C)C(N)=O = > 5000 µM
• CN(C)c1nc(=Nc2cccc(Cl)c2)ss1 = 29.9 µM
• O=c1[nH]c2cc(Cl)ccc2nc1/C(=N\O)C(O)c1ccc([N+](=O)[O-])cc1 (configuration not stated) = > 100 µM
• CCOc1cccc2ccc[n+](CC)c12 = > 100 µM
• Cc1cc(N(CCC#N)S(C)(=O)=O)ccc1C=Nc1ccc(C(=O)NN2C(=O)/C(=C/c3ccc(N(CCC#N)CCC#N)cc3C)N=C2c2cc([N+](=O)[O-])ccc2Cl)cc1 = > 100 µM
• Nc1ccn(C2OC(COC(=O)C34CC5CC(CC(C5)C3)C4)C(O)C2O)c(=O)n1 (configuration not stated) = > 100 µM
• Cc1c(C(=O)/C=C/c2ccccc2O)c(=O)n(-c2ccccc2)n1C = > 100 µM

These data points were gathered from PubChem BioAssay (NCI).
